The origin of these recorded values is paper PMC6930503.

- assay.comment: MTT cytotoxicity assay on Vero cells
- assay.conditions: African green monkey
quantity.name: IC50 at 24 h

INSERT INTO assay_data (compound, experimental_result) VALUES
  ('CC(=O)C[Se]C(=O)c1ccc(Cl)cc1 [Compound 9]', '31 µM'),
  ('CC(C)(C)C(=O)C[Se]C(=O)c1ccc(Cl)cc1 [Compound 10]', '45 µM'),
  ('O=C(C[Se]C(=O)c1ccccc1)Oc1ccccc1 [Compound 8]', '> 100 µM'),
  ('C[Se]C(=O)c1cccc(C(=O)[Se]C)c1 [Compound 4]', '> 100 µM'),
  ('C[Se]C(=O)c1cccc(C(=O)[Se]C)n1 [Compound 3]', '> 100 µM'),
  ('C[Se]C(=O)c1ccc(C(=O)[Se]C)cc1 [Compound 5]', '> 100 µM');
